tested on: UISO; assay: qHTS assay to identify novel small-molecules to repurpose for Merkel cell carcinoma treatment (AID 1296009); conditions: MCC and control cell lines, CellTiter-Glo viability, 72 h; series mostly up to 46 µM; also: nearly all actives have a fitted effect of over 60% in size
Records with an inconclusive call do not appear. The source made the active and inactive calls. Calls follow the shape of the dose curve; as a rule, active = well fitted inhibition curve with a large enough effect; inconclusive = small, poorly fitted or top-dose-only effect; inactive = flat fitted curve, though single readings scatter.
Choose one outcome from this list and give only that: True (active), False (inactive)

Some entries whose results are on file:
NC(=O)[C@@H](CCC(F)(F)F)N(Cc1ccc(-c2ncon2)cc1F)S(=O)(=O)c1ccc(Cl)cc1    False
COc1ccc(-n2c(C)c([N+](=O)[O-])c3ccc(O)cc32)cc1    False
O=C(O)Cc1cccc2ccccc12    False

We now examine a further molecule.
Prompt: Called result for "Nc1ncnc2ccccc12"
Response: False

* * *

assay: S16 Schwann cell PMP22 intronic element beta-lactamase assay (AID 624044); conditions: S16 rat Schwann cells, PMP22 element beta-lactamase FRET, 24 h; series mostly up to 38.3 µM; also: nearly all actives have a fitted effect of over 15% in size
Results filed as inconclusive are left out. The source made the active and inactive calls. Calls come from the whole dose curve.
Entry note: the call must match one of t for active, f for inactive

Reference set, count: 5
O=c1[nH]cnc2c1ncn2[C@H]1CC[C@@H](CO)O1    f
O=C1Nc2ccc(Cl)cc2C(C#CC2CC2)(C(F)(F)F)O1 (stereo not drawn)    f
Clc1ccc(Cn2c(CN3CCCC3)nc3ccccc32)cc1    f
O=C1NCC2(CCN(CCc3ccccc3)CC2)O1    f
CCCCCN(C)CCC(O)(P(=O)(O)O)P(=O)(O)O    f

Prompt: // outcome(item) with item = "COc1cc2ncnc(Nc3ccc(F)c(Cl)c3)c2cc1OCCCN1CCOCC1"
Response: f

Prompt: Assay result, entry "O=C(CCCCCCC(=O)Nc1ccccc1)NO" — outcome?
Response: t

Prompt: Could you please tell me the result logged for "CCOC(=O)O[C@]1(C(=O)OCCl)CC[C@@H]2[C@H]3CCC4=CC(=O)C=C[C@]4(C)[C@@H]3[C@@H](O)C[C@@]21C" in this assay?
Response: f

* * *

assay: qHTS Screen of the MIPE 4.0 Collection Against Ewings Sarcoma (RDES) (AID 1259252); details: RD-ES Ewing sarcoma viability, CellTiter-Glo, 48 h; series mostly up to 45.8 µM; also: nearly all actives have a fitted effect of over 35% in size
Records with an inconclusive call do not appear. Active and inactive are the calls of the source. Calls follow the shape of the dose curve; as a rule, active = well fitted inhibition curve with a large enough effect; inconclusive = small, poorly fitted or top-dose-only effect; inactive = no such curve, though single readings can be large or run the other way.
Answer with one of the outcomes yes (active), no (inactive)

Previously resolved entries follow.
CCc1ccc(C=C2SC(=S)NC2=O)cc1    no
O=c1c(-c2ccc(O)cc2)coc2cc(OC3O[C@H](CO)[C@H](O)[C@H](O)[C@H]3O)cc(O)c12 (stereo not given in full)    yes
CO[C@H]1C(=O)[C@]2(C)[C@@H](OC)C[C@H]3OC[C@@]3(OC(C)=O)[C@H]2[C@H](OC(=O)c2ccccc2)[C@]2(O)C[C@H](OC(=O)[C@H](O)[C@@H](NC(=O)OC(C)(C)C)c3ccccc3)C(C)=C1C2(C)C    no

Prompt: Identify the outcome logged in this assay for the compound shown: "C[N+](C)(C)CC(=O)O"
Response: no

Prompt: Which outcome did this test record for the compound "O=C1c2ccccc2-[n+]2ccc3c([nH]c4ccccc43)c21" ?
Response: yes

* * *

test: qHTS profiling of the MIPE4 collection as inhibitors of Plasmodium falciparum (3D7) proliferation (AID 743344); details: P. falciparum 3D7 in erythrocytes, SYBR Green DNA fluorescence, 72 h; at 28.5 µM (top of the series) unless noted
Please assign a class to every record based on measured parasite growth, % of DMSO control, with ranges class A = under 20%, class B = from 20% up to 70%, class C = 70% and over

# example entries with known answers
Cc1cc(OCCCc2c(C(=O)O)n(Cc3cccnc3)c3c(-c4c(COc5ccc(N6CCN([S+](C)(=O)[O-])CC6)cc5)nn(C)c4C)cccc23)cc(C)c1Cl    class A
COc1ccc(Cc2ccc(NC(N)=O)cc2)cc1-c1cccc(Cl)c1    class B
CC(=O)O[C@]1(C(C)=O)CC[C@@H]2[C@@H]3C[C@H](C)C4=CC(=O)CC[C@]4(C)[C@H]3CC[C@@]21C    class B
COc1ccc(-c2coc3cc(O)ccc3c2=O)cc1    class B
NC1CCC(Nc2nc(Nc3ccc(C(=O)N4CCCCC4)cc3)c3ncn(-c4cccc(F)c4)c3n2)CC1 (centres undefined)    class C

Now, please, on to the next molecule.
Prompt: Consider "O=c1c(O)c(-c2ccc(O)cc2)oc2cc(O)cc(O)c12" . To which parasite growth, % of DMSO control class does it belong?
Response: class B
